biological target: Epidermal growth factor receptor (Homo sapiens, UniProt P00533); experiment: Inhibition of peptide substrate phosphorylation by epidermal growth factor receptor
Sequence (P00533 whole entry): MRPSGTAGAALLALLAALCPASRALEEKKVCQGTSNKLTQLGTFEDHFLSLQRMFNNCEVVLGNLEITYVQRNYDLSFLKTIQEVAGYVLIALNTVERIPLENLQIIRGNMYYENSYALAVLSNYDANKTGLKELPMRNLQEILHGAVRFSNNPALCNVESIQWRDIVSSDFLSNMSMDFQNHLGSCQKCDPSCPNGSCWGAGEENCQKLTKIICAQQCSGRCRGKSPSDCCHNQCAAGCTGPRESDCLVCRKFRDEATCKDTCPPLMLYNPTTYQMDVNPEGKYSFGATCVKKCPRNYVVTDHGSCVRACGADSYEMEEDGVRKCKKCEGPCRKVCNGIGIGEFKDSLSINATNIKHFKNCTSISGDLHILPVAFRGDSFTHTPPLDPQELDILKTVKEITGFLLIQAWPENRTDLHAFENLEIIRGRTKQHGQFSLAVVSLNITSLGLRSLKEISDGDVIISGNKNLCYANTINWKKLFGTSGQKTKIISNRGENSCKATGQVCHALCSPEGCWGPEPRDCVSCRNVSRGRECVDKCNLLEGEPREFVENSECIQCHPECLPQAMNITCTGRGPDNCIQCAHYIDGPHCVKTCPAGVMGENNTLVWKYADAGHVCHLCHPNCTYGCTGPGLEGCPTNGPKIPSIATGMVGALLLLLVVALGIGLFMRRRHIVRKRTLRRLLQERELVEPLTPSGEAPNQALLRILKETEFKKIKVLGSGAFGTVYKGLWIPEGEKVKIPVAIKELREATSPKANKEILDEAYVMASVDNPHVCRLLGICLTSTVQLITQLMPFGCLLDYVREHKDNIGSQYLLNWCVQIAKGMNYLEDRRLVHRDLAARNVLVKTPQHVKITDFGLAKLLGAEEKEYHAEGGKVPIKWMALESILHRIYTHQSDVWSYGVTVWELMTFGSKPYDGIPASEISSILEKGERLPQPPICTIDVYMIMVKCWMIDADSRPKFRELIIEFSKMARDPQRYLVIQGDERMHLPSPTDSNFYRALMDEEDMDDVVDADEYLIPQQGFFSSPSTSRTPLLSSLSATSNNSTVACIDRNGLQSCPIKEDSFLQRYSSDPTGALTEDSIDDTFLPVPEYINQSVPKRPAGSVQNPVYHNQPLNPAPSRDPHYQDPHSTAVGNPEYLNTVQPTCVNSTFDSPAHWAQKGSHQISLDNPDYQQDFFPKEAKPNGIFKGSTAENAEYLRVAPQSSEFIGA
pIC50: −log10 of the molar value.
EXPERIMENTAL ENDPOINT: pIC50

Reference set, count: 5
CN(C)C/C=C/C(=O)Nc1ccc2ncc(C#N)c(Nc3cccc(Br)c3)c2c1
7.43
CN(C)C/C=C/C(=O)Nc1cc2c(Nc3cccc(Br)c3)c(C#N)cnc2cn1
8.72
CC#CC(=O)Nc1cnc2ncc(C#N)c(Nc3ccc(F)c(Cl)c3)c2c1
5.42
CC#CC(=O)Nc1ccc2ncc(C#N)c(Nc3ccc(F)c(Cl)c3)c2c1
6.48
C=CC(=O)Nc1cnc2ncc(C#N)c(Nc3cccc(Br)c3)c2c1
6.43

[a] C=CC(=O)Nc1ccc2ncc(C#N)c(Nc3cccc(Br)c3)c2c1
[b] CC#CC(=O)Nc1ccc2ncc(C#N)c(Nc3cccc(Br)c3)c2c1
[c] CC#CC(=O)Nc1cnc2ncc(C#N)c(Nc3cccc(Br)c3)c2c1
[d] CN(C)C/C=C/C(=O)Nc1cnc2ncc(C#N)c(Nc3cccc(Br)c3)c2c1
Q) Sort the 4 compounds by pIC50; largest first, smallest last. Write out the labels following the order that was asked for.
A) a, b, d, c

---

biological target: Epidermal growth factor receptor (Homo sapiens); assay: Inhibition of epidermal growth factor receptor kinase autophosphorylation
pIC50: −log10 of the molar value.
EXPERIMENTAL ENDPOINT: pIC50

CC#CC(=O)Nc1cnc2ncc(C#N)c(Nc3ccc(F)c(Cl)c3)c2c1
5.17
C=CC(=O)Nc1ccc2ncc(C#N)c(Nc3cccc(Br)c3)c2c1
7.06
CN(C)C/C=C/C(=O)Nc1ccc2ncc(C#N)c(Nc3cccc(Br)c3)c2c1
6.91
CN(C)C/C=C/C(=O)Nc1cc2c(Nc3cccc(Br)c3)c(C#N)cnc2cn1
8.07

[P] CC#CC(=O)Nc1ccc2ncc(C#N)c(Nc3ccc(F)c(Cl)c3)c2c1
[Q] CN(C)C/C=C/C(=O)Nc1cnc2ncc(C#N)c(Nc3cccc(Br)c3)c2c1
Q) Among P and Q , whose measured pIC50 is the smaller figure? Output the label that corresponds to your choice.
A) Q

---

Let's look at some compounds and their measured pIC50.
biological target: Epidermal growth factor receptor (Homo sapiens); test: Inhibition of epidermal growth factor receptor kinase autophosphorylation
pIC50: −log10 of the molar value.

As a guide, the following entries are already answered.
CC#CC(=O)Nc1ccc2ncc(C#N)c(Nc3cccc(Br)c3)c2c1
< 6.00
C=CC(=O)Nc1cnc2ncc(C#N)c(Nc3cccc(Br)c3)c2c1
6.01
CC#CC(=O)Nc1cnc2ncc(C#N)c(Nc3cccc(Br)c3)c2c1
< 5.00
CN(C)CCOc1cc2c(Nc3cccc(Br)c3)c(C#N)cnc2cn1
< 5.00

Q) Lookup: pIC50 / Epidermal growth factor receptor (Homo sapiens) / CN(C)CCOc1cc2c(Nc3ccc(F)c(Cl)c3)c(C#N)cnc2cn1
A) < 5.00
